The entries below pair compounds with pIC50 values for Vascular endothelial growth factor receptor 2 (Homo sapiens, UniProt P35968), as found in several publications.
pIC50: −log10 of the molar value.

Worked examples, 3 compounds total:
                                   compound  readout        result
0  C[C@@H](O)[C@@H](C)Oc1nc(Nc2cccc(NC(=O)N=S(C)(C)=O)c2)ncc1Br    pIC50          6.89
1  Cc1cnc2[nH]cc(C(=O)c3c(F)ccc(NS(=O)(=O)CC(C)C)c3F)c2c1    pIC50        ≥ 5.00
2          O=C1Nc2ncccc2C1=CNc1ccc2ncccc2c1    pIC50  5.00 to 6.00

In: Given the entry CCOc1ccn(-c2ccc(F)cc2)c(=O)c1C(=O)Nc1ccc(Oc2ccnc3cc(OCCCN4CCC(C)(O)CC4)c4c(c23)OCCO4)c(F)c1 , report its measured pIC50.
Out: ≥ 7.30

In: Continue with FC(F)Oc1ccc(COc2cnc3[nH]ccc3c2)cc1
Out: ≥ 5.00

###

The entries below pair molecules with IC50 values for Vascular endothelial growth factor receptor 2 (Homo sapiens), as found in several publications.

Worked examples, 4 molecules total:
                                   molecule                             tested_target          result
0  COCCOc1cc2ncnc(Oc3ccc(NC(=O)Nc4cccc(OC)c4)cc3Cl)c2c2c1OCCO2  Vascular endothelial growth factor receptor 2 (Homo sapiens)         < 50 nM
1  CCCOC(=O)N=S(C)(=O)c1ccc2cc1OCCCCNc1nc(ncc1Br)N2 (racemic)  Vascular endothelial growth factor receptor 2 (Homo sapiens)          136 nM
2  COc1cc2nccc(Oc3ccc(NC(=S)NC4CCNC4=O)c(Cl)c3)c2cc1C(N)=O (stereo not drawn)  Vascular endothelial growth factor receptor 2 (Homo sapiens)  200 to 1000 nM
3  O=C(Cc1ccc(F)c(C(F)(F)F)c1)Nc1cccc(Oc2ccnc(-c3nnco3)c2)c1  Vascular endothelial growth factor receptor 2 (Homo sapiens)      ≤ 10000 nM

In: Given the entry CC(C)c1ncc(CNc2ccc(Cc3c[nH]c4ncncc34)c(F)n2)cn1 , report its measured IC50.
Out: ≤ 10000 nM

In: Continue with Nc1c(C(=O)O)c(-c2ccncc2)nn1-c1c(Cl)cc(Cl)cc1Cl
Out: 43000 nM

In: Continue with CN1CCC(c2cc(NC(=O)Nc3ccc(Oc4ccnc(NC(=O)C5CC5)c4)cc3)cc(C(F)(F)F)c2)CC1
Out: 9.5 nM

In: Continue with COc1cc2nccc(Oc3ccc(NC(=S)Nc4cccnc4)c(Cl)c3)c2cc1C(N)=O
Out: 50 to 200 nM

In: Continue with COc1cc(NC(=O)Nc2ccc(Oc3ncnc4cc(OC)c5c(c34)OCCO5)c(Cl)c2)ccn1
Out: < 50 nM

In: Continue with Cn1cc(-c2cc(Oc3cccc(NC(=O)c4ccc5[nH]cnc5c4)c3)ccn2)cn1
Out: ≤ 10000 nM

In: Continue with Cn1cc(-c2cc(Oc3ccc(NC(=O)Nc4ccc(Cl)c(C(F)(F)F)c4)cc3)ncn2)cn1
Out: ≤ 10000 nM

In: Continue with C[C@@H](O)[C@@H](C)Nc1nc(Nc2ccc(Oc3ncccn3)cc2)ncc1Br
Out: 100 nM

In: Continue with C[C@@H](Nc1ncnc2[nH]c(-c3ccc(C(=O)NO)cc3)cc12)c1ccccc1
Out: 100 to 1000 nM

In: Continue with O=C(c1ccccc1F)c1c[nH]c2nccc(-c3cccnc3)c12
Out: ≤ 10000 nM

In: Continue with COc1cc2nccc(Oc3ccc(NC(=O)c4cn(CCF)c(C)c(C5CCCC5)c4=O)cc3F)c2nc1OC
Out: ≤ 100 nM

In: Continue with Nc1ncnc2nn3ccccc3c12
Out: > 10000 nM

In: Continue with O=C(CCBr)c1c[nH]c2ncccc12
Out: ≤ 10000 nM

In: Continue with COc1cc2ncnc(Nc3ccc(NC(=O)Nc4cccc(S(C)(=O)=O)c4)c(Cl)c3)c2c2c1OCCO2
Out: < 50 nM
